test_target: T1, HLA-DP4 (human), P20036
T1 chain 1: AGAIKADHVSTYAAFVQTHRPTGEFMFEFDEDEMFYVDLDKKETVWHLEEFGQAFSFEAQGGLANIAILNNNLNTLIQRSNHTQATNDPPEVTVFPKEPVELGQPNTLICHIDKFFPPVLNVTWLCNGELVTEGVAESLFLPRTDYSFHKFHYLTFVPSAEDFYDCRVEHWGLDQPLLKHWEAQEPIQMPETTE
T1 chain 2: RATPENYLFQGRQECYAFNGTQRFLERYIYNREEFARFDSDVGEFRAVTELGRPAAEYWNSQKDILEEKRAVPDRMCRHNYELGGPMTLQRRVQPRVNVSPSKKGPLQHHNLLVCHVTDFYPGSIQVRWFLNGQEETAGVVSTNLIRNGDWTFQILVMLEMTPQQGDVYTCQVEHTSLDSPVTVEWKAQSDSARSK
test_name: competition
reported_conditions: modification not given
# label = yes (1) if IC50 < 5 mM else no (0)

- PGCNKRYFKLSHLQMHSAKHT [345A]: no (0)
- PGCNKAYFKLSHLQMHSRKHT [333A]: yes (1)
- PGCNKRYFKLSHLAMHSRKHT [341A]: no (0)
- PGCAKRYFKLSHLQMHSRKHT [331A]: no (0)
- PGCNARYFKLSHLQMHSRKHT [332A]: yes (1)
- PACNKRYFKLSHLQMHSRKHT [329A]: no (0)
